endpoint_name: melting point

Consider the following illustrative entries.
# compound, melting point
rows = [
    ("Cc1cc(C)cc(C(=O)NCCCCCC(=O)NCCO)c1", "110.1 to 111.8 °C"),
    ("CC(O)CNC(=O)CCCCCNC(=O)c1ccc(C(F)(F)F)cc1 (stereo not shown)", "106.3 to 108.1 °C"),
    ("CC(O)CNC(=O)CCCCCNC(=O)c1ccc(Br)cc1 (stereo not shown)", "112.4 to 114.7 °C"),
]

Notebook: CC(O)CNC(=O)CCCCCNC(=O)c1ccc([N+](=O)[O-])cc1 (stereo not shown) , melting point read as 124.3 to 126.1 °C

// field: melting point; key: `O=C(CCCCCNC(=O)c1ccc(I)cc1)NCCO` ; value = 150.4 to 150.9 °C

Lab note: `O=C(CCCCCNC(=O)c1ccc(C(F)(F)F)cc1)NCCO` gave melting point of 105 to 106.3 °C
